assay: NCI Yeast Anticancer Drug Screen. Data for the rad50 strain (AID 155); settings: S. cerevisiae rad50 strain growth inhibition; at 3.7 µM; active compounds read high
This is part of a sample that, as a whole, favours compounds with a hit. Of some 79,000 tested, about 15% had one in any assay.
Give True when the value for growth inhibition is at least 6%. Give False when it is less.

Compound	Category label
OC(CCNCc1ccccc1)c1ccc2ccccc2c1 (stereo unspecified)	True

input: Could you verify whether the entry "CN(C)CCNC(=O)c1cccc2cc([N+](=O)[O-])ccc12" shows growth inhibition of no less than 6%?
output: True

input: // repeat for "C=C(Cl)COC(=O)Nc1cccc(Cl)c1" and report
output: True

input: // repeat for "O=c1[nH]c(-c2ccccc2)nc2c1sc1nc3ccccc3n12" and report
output: False

input: // repeat for "Cc1cc(O)c(C(C)C)cc1C1(c2cc(C(C)C)c(O)cc2C)OC(=O)c2ccccc21" and report
output: False
